Target: UDP-3-O-acyl-N-acetylglucosamine deacetylase (Pseudomonas aeruginosa (strain ATCC 15692 / DSM 22644 / CIP 104116 / JCM 14847 / LMG 12228 / 1C / PRS 101 / PAO1), UniProt P47205)
Sequence (P47205 whole entry): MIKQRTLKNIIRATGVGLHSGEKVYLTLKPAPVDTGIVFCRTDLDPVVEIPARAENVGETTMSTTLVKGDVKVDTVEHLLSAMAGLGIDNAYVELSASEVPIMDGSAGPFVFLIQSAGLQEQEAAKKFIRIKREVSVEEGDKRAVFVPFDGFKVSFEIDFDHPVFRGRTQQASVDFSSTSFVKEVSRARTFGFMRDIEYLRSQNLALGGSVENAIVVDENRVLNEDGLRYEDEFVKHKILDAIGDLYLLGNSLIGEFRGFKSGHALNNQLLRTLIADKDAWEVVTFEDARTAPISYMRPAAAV
Assay: Thermofluor_Method1
reported endpoint: Kd (µM)

CN(C)c1ccc(-c2nc(C(=O)NO)cs2)cc1 [CS278]; 28.2

1. C[C@@H](O)[C@H](NC(=O)c1ccc(-c2ccc(Br)cc2)cc1)C(=O)NO [CS258]
2. O=C(NO)c1csc(-c2ccc(OC(F)(F)F)c(Cl)c2)n1 [CS275]
3. NC[C@H](NC(=O)c1ccc(C#CC#Cc2ccccc2)cc1)C(=O)NO [CS252]
Write the entries in order, lowest recorded Kd first. Write the labels, ordered according to the request. 1, 3, 2

* * *

Biological target: UDP-3-O-acyl-N-acetylglucosamine deacetylase (Pseudomonas aeruginosa (strain ATCC 15692 / DSM 22644 / CIP 104116 / JCM 14847 / LMG 12228 / 1C / PRS 101 / PAO1))
Assay: Thermofluor_Method1
reported endpoint: Kd (µM)

O=C(NO)[C@H]1COC(c2cc3cc(F)ccc3[nH]2)=N1 [CS272]; 1.5
NC[C@H](NC(=O)c1ccc(-c2ccc(Br)cc2)cc1)C(=O)NO [CS250]; 0.19
C[C@@H](O)[C@H](NC(=O)c1ccc(-c2ccccc2)cc1)C(=O)NO [CS263]; 0.0745
O=C(NO)[C@H]1COC(c2ccc(OC(F)(F)F)c(Cl)c2)=N1 [CS270]; 3.8
O=C(NO)[C@H]1COC(c2ccc([N+](=O)[O-])cc2)=N1 [CS268]; 7.25
CCCc1ccc(-c2ccc(C3=N[C@@H](C(=O)NO)CO3)cc2)cc1 [CS274]; 15.6

1. O=C(NO)[C@H]1COC(c2ccc(F)cc2)=N1 [CS279]
2. C[C@@H](O)[C@H](NC(=O)c1ccc(C#Cc2ccccc2)cc1)C(=O)NO [CS259]
3. C[C@@H](O)[C@H](NC(=O)c1ccc(C#CC#Cc2ccccc2)cc1)C(=O)NO [CS257]
4. CC1(CNC(=O)c2ccc(C#Cc3ccccc3)cc2)NC(=O)NC1=O (centres undefined) [CS22]
Write the entries in order, lowest recorded Kd first. Write the labels, ordered according to the request. 3, 2, 1, 4
(3: 0.00835 µM, 2: 0.0201 µM, 1: 11.1 µM, 4: 93.4 µM)

* * *

Target: UDP-3-O-acyl-N-acetylglucosamine deacetylase (Pseudomonas aeruginosa (strain ATCC 15692 / DSM 22644 / CIP 104116 / JCM 14847 / LMG 12228 / 1C / PRS 101 / PAO1))
Assay: Thermofluor_Method1
reported endpoint: Kd (µM)

1. O=C(NO)C1=C[SiH2]C(c2ccc(F)cc2)=N1 (configuration not stated)
2. CC1(CNC(=O)c2ccc(C#CC#Cc3ccccc3)cc2)NC(=O)NC1=O (configuration not stated)
3. NC[C@H](NC(=O)c1ccc(-c2ccccc2)cc1)C(=O)NO
4. O=C(NO)c1csc(-c2ccc(F)c(C(F)(F)F)c2)n1
Parameters: sort_by = Kd; order = desc; input = items above. Write the labels, ordered according to the request. 2, 1, 4, 3
(2: 63.9 µM, 1: 28.5 µM, 4: 2.91 µM, 3: 0.393 µM)
